- Assay target: IGF2 (Homo sapiens, UniProt P01344)
- Sequence (P01344 25-91): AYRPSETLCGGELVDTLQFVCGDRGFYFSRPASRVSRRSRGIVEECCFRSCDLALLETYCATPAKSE
- Assay name: SPR (Biacore T200) of recombinant IGF2R domain 11 mutants on immobilised biotinylated IGF2
- Assay type: binding
- Set-up: purchased GroPep
- Study conditions: Table 3; 25° C., HBS-EP pH 7.4
Listed next: entries and their corresponding Kinetics kon.
Numbers only; they are read as M⁻¹ s⁻¹.

For reference, reported Kinetics kon for AB3 Q1569R: domain 11 AB3 + CD loop Q1569R (protein) MKSNEHDDCQVTNPSTGHLFDLSSLSGRAGFTAAYSKSGVVYMSICGENENCPPGVGACFGRTRISVGKANKRLRYVDQVLQLVYKDGSPCPSKSGLSYKSVISFVCRPEAGPTNRPMLISLDKQTCTLFFSWHTPLACEQATECSV stands at 1.36e+07

Looking up AB5 Q1569R P1597K S1602H: domain 11 AB5 + Q1569R, P1597K, S1602H (protein) MKSNEHDDCQVTNPSTGHLFDLSSLSGRAGFTAAYAKGWGVYMSICGENENCPPGVGACFGRTRISVGKANKRLRYVDQVLQLVYKDGSKCPSKHGLSYKSVISFVCRPEAGPTNRPMLISLDKQTCTLFFSWHTPLACEQATECSV , I found its Kinetics kon recorded as 7.87e+06

The recorded Kinetics kon for entry AB5 Q1569R P1597H: domain 11 AB5 + Q1569R, P1597H (protein) MKSNEHDDCQVTNPSTGHLFDLSSLSGRAGFTAAYAKGWGVYMSICGENENCPPGVGACFGRTRISVGKANKRLRYVDQVLQLVYKDGSHCPSKSGLSYKSVISFVCRPEAGPTNRPMLISLDKQTCTLFFSWHTPLACEQATECSV equals 3.2e+06
